target: Cytochrome P450 1A1 (Homo sapiens); test: Inhibition of CYP1A1 (unknown origin) expressed in HEK293-T-REx cells co-expressing POR incubated for 1 hr by resorufin dye based plate reader analysis
Sequence (P04798 whole entry): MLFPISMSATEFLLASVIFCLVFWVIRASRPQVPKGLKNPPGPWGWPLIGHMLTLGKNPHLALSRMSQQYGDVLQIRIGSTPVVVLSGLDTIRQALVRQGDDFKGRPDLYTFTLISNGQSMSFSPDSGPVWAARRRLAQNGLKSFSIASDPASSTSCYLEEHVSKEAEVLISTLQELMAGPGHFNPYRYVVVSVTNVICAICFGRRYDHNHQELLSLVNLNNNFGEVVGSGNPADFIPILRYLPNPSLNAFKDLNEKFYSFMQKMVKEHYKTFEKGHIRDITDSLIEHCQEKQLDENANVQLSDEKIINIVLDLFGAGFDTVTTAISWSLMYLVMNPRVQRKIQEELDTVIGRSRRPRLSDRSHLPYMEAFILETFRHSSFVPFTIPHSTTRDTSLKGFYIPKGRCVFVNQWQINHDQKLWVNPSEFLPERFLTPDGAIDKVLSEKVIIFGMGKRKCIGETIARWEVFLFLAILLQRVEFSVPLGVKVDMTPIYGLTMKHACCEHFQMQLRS
measurement.label: IC50 (µM)
Give your result in µM as a bare value.

given.smiles	readout.units	recorded.measurement
C#C[C@]1(O)CC[C@H]2[C@@H]3CCc4cc(O)c(-c5ccc(OC)cc5)cc4[C@H]3CC[C@@]21C	µM	9.2
COc1ccc(OC)c2c1c(OC)cc1c(=O)cc(-c3cccc(F)c3)oc12	µM	0.012

Switching to the query record.
Q) I have this compound here, COc1ccc(/C=C/c2ccncc2)c(OC)c1 , and I need its recorded IC50.
A) 4.57
